System: HT29 colon
Assay: NCI tumour cell line growth inhibition, 48 h
Where a SMILES comes first, the peptide text is derived from it. Bridges are numbered along the chain shown (N, C = ends). [ ]: non-standard residue; d: D form. Aib = CC(C)(N)C(=O)O; βAla = NCCC(=O)O
Reported TGI values follow for various compounds

Consider the reported TGI for these compounds:
COMPOUND	MEAS VALUE
COc1ccc(S(=O)(=O)N2C(=O)CCC2C(=O)NC(N)=O)cc1 (stereo not drawn)	> 100 µM
COc1ccccc1/C=C/c1ccnc2ccccc12	25.4 µM
CC1(C)NC(=O)C(NC(=O)C(N)CC(=O)O)CCCCNC(=O)CCNC1=O (stereo not drawn) (H-DK[Aib][βAla]; lactam 2-C; configuration not given here)	> 100 µM
C[C@H](C1CC(C)(O)C(C)(O)C(O)O1)[C@H]1CC[C@H]2[C@@H]3[C@@H]4O[C@@H]4[C@@]4(O)CC=CC(=O)[C@]4(C)[C@H]3CC[C@]12C (stereo partly drawn)	> 50 µM
Cc1cc2c(C(=O)NC[C@H](C)c3ccccc3)c(O)c(O)cc2c(O)c1-c1c(C)cc2c(C(=O)NC[C@H](C)c3ccccc3)c(O)c(O)cc2c1O	11 µM

For O=C1C=C(Nc2ccc(Cl)cc2Cl)c2ccccc2C1=O the compound record lists TGI as > 100 µM

For O=C(O)c1ccccc1C(=O)NCC1S(=O)(=O)OCCOS1(=O)=O the compound record lists TGI as > 100 µM

For COC(=O)[C@@H]1c2cc3c(c(O)c2[C@@H](OC2OC(C)C(OC)C(C)(OC)C2OC)C[C@]1(C)O)C(=O)c1c(O)cc2c(c1C3=O)O[C@H]1O[C@]2(C)[C@H](O)[C@@H](N(C)C)[C@@H]1O (stereo partly drawn) the compound record lists TGI as 10.1 µM

* * *

Tested on: 786-0 renal
Experiment: NCI tumour cell line growth inhibition, 48 h
QUANTITY: TGI (µM)
Unit µM implied. Number only.

Consider the reported TGI for these compounds:
COMPOUND	TGI [µM]
COc1cc(C(=O)NC2CCc3cc(OC)c(OC)c(OC)c3-c3ccc(OC)c(=O)cc32)cc(OC)c1OC (stereo not drawn)	70.9
COc1ccccc1/C=C/c1ccnc2ccccc12	27.7
Cc1ccc(O)c(NC(=O)c2cccc(Nc3ccnc(C(F)(F)F)c3)c2)c1	51.5
COC(COC(N)=O)C1=C(N2CC2)C(=O)C(C)=C(N2CC2)C1=O (stereo not drawn)	0.186
C/C=C(\C)c1cc(=O)c2c(C)cc3c(c2o1)C(=O)c1c(O)c(C2CC(C)(N(C)C)C(OC(C)=O)C(C)O2)cc(C2CC(N(C)C)C(O)C(C)O2)c1C3=O (stereo not drawn)	5.68

For COc1cc(/C=C/c2cc(/C=C/c3ccc(O)c(OC)c3)n(C(=O)c3ccc(Cl)cc3)n2)ccc1O the compound record lists TGI as 16.2

For Clc1c(Cl)[n+](Cc2ccc3ccccc3c2)cn1Cc1ccc2ccccc2c1 the compound record lists TGI as 3.11

For COc1cc(/C=C2\CC3C4CC=C5C[C@@H](OC(C)=O)CC[C@]5(C)C4CC[C@]3(C)C2=O)ccc1OCCN1CCCCC1 (stereo partly drawn) the compound record lists TGI as 3.1

For COc1ccc(Nc2nc3cc(N)cc(N)c3nc2-c2ccccc2)cc1 the compound record lists TGI as 31.2

* * *

Tested on: MALME-3M melanoma
Assay: NCI tumour cell line growth inhibition, 48 h
QUANTITY: GI50

Consider the reported GI50 for these molecules:
> print(dat)
                            compound.string      system.tested  meas.value
1  C=C(c1ccc(OC)c(/C=C/C(=O)c2ccc3c(c2)OCO3)c1)c1cc(OC)c(OC)c(OC)c1  MALME-3M melanoma    > 100 µM
2  Cc1cnc2n1S(=O)(=O)c1cc(C(=O)Nc3cccc4nsnc34)c(Cl)cc1S2  MALME-3M melanoma     13.9 µM

We next turn to a different molecule, shown below.
For Fc1ccc(-c2c(-c3ccncc3)nc3n2CCS3)cc1 the molecule record lists GI50 as > 25 µM

* * *

Reported TGI values follow for various molecules
Tested on: KM12 colon
Test: NCI tumour cell line growth inhibition, 48 h
Where a SMILES comes first, the peptide text is derived from it. Bridges are numbered along the chain shown (N, C = ends). [ ]: non-standard residue; d: D form. Aib = CC(C)(N)C(=O)O; βAla = NCCC(=O)O

MOLECULE	TGI
CC1(C)NC(=O)C(NC(=O)C(N)CC(=O)O)CCCCNC(=O)CCNC1=O (centres undefined) (H-DK[Aib][βAla]; lactam 2-C; configuration not given here)	> 100 µM

For CN(C)C(C1=C(O)C(c2ccccc2)N(c2ccccc2)C1=O)N1CCOCC1 (centres undefined) the molecule record lists TGI as > 10 µM

For COc1ccccc1Nc1cc(O)c2c(=O)cc(-c3ccccc3)oc2c1 the molecule record lists TGI as 55.2 µM

For COc1ccc(CNc2cnc3cc(N)ccc3n2)cc1 the molecule record lists TGI as > 100 µM

* * *

Tested on: HCT-116 colon
Test: NCI tumour cell line growth inhibition, 48 h
QUANTITY: TGI

Consider the reported TGI for these compounds:
> print(dat)
                                   compound  meas.value
1  C=C(C)C12CC3CC(/C(=N/O)C(C1)/C3=N\O)[C@@]2(C)O (some centres undefined)    > 100 µM
2  OC1(C(Sc2cc(C(F)(F)F)cc(C(F)(F)F)c2)Sc2cc(C(F)(F)F)cc(C(F)(F)F)c2)C=CCCC1 (centres undefined)     6.74 µM
3  O=C1NC2c3c(I)sc(I)c3C(=O)C2O1 (centres undefined)     6.87 µM
4  CN[C@H]1CN(c2ccc3c(=O)c(C(=O)O)cn(-c4nccs4)c3n2)C[C@@H]1OC     4.58 µM
5  Cc1ccc2c(c1)SC1=Nc3sc4cc(C)ccc4[n+]3CN12       35 µM

For CNC(=O)C(C)NC(=O)C(Cc1ccccc1)NC(=O)c1ccccc1 (centres undefined) the compound record lists TGI as > 100 µM

For O=C(CCC(=O)Nc1ccc(Cl)c(Cl)c1)Cc1nc2ccccc2o1 the compound record lists TGI as > 100 µM

For CC[C@]12C=CCN3CC[C@@]4(c5cc(N=O)c(OC)cc5N(C)[C@H]4[C@@](O)(C(=O)OC)[C@@H]1OC(C)=O)[C@@H]32 the compound record lists TGI as > 100 µM

For COc1ccc(C(CC2(c3ccc(OC)cc3)SCCCS2)NC(C)=O)cc1 (centres undefined) the compound record lists TGI as > 100 µM

For O=C1/C(=C/c2cccc(Cl)c2)CCCc2ccccc21 the compound record lists TGI as 26.1 µM

For OC(CNc1ccnc2cc(Cl)ccc12)CNc1ccnc2cc(Cl)ccc12 the compound record lists TGI as 3.09 µM

For CC(=O)OCCn1cnc2c(NCC=C(C)C)ncnc21 the compound record lists TGI as > 100 µM

For CCOC(=O)c1cnc(N(C)C)nc1SC(=N)N the compound record lists TGI as > 100 µM

For N#C/C(=C\c1ccc(F)cc1)c1nc(-c2cc3ccccc3oc2=O)cs1 the compound record lists TGI as > 100 µM

For CC(=O)OC[C@H]1CN(OC(C)=O)C[C@@H](n2cc(C)c(=O)[nH]c2=O)O1 the compound record lists TGI as > 100 µM

* * *

System: PC-3 prostate
Experiment: NCI tumour cell line growth inhibition, 48 h; in the data active means GI50 below about 0.43 µM; inactive means the rest
// classify into active, inactive

> print(dat)
                                   compound  category
1  CC1Cc2c(Cl)ncnc2N(C)c2ccc(Cl)cc21 (stereo not drawn)    active
2  CCc1ccc(Oc2c(-c3ccc(OCc4ccc(Cl)cc4)cc3O)n[nH]c2C(F)(F)F)cc1  inactive

Problem: State the result this test recorded for O=C1N[C@@H]2[C@@H](O)[C@@H](O)[C@H](O)C[C@H]2c2cc3c(c(O)c21)OCCO3 .
Solution: active

* * *

Test system: A549 NSCLC
Assay: NCI tumour cell line growth inhibition, 48 h
QUANTITY: GI50

Consider the reported GI50 for these compounds:
> print(dat)
                            compound.string  quantity  meas.value
1  COc1ccc2c(c1)C(=O)c1c-2n(CCCN(C)C)c(=O)c2ccccc12      GI50    0.119 µM
2  CCOC(=O)c1cc(C(=O)c2ccc(OC)cc2)n2ccc(/C=C/c3cc[n+](CC(=O)c4ccc(OC)cc4)cc3)cc12      GI50     3.96 µM
3  CNC(=O)c1c(C)oc2cc(Oc3ncnc4cc(OC)c(OC)cc34)ccc12      GI50    > 100 µM
4  CCOC(=O)C1=CCCC[C@H]1S(=O)(=O)Nc1ccc(F)cc1Cl      GI50     35.4 µM
5           O=C(NCCCCN1CCOCC1)c1cc2ccccc2o1      GI50    > 100 µM

We next turn to a different compound, shown below.
For O=C1NC(=C(Cl)Cl)/C(=N/S(=O)(=O)N2CCCCC2)N1 the compound record lists GI50 as 6.85 µM
